- measured-on: SMYD2 (Homo sapiens)
- Construct: Full length SMYD2 (NP 064582.2) was cloned; His6 (N, cleaved yes); FLAG (N); made in house; host or cells: Sf9 insect cells
- Sequence (Q9NRG4 whole entry): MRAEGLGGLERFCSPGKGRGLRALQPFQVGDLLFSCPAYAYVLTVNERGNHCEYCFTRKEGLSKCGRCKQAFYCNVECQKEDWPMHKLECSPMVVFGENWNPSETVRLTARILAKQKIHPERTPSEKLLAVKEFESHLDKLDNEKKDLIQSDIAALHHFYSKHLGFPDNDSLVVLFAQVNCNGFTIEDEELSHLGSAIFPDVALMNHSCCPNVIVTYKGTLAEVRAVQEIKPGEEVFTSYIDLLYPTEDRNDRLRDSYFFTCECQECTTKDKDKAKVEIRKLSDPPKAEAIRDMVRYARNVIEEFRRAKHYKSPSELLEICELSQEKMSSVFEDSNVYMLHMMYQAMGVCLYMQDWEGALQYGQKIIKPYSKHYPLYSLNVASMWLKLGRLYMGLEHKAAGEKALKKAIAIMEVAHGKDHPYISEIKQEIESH
- assay-remarks: SMYD2 Biochemical Assay (3H-SAM, biotinylated peptide substrate, Flashplate)
- experimental-parameters: IC50 values are an average of n = 1 to n = 50; read-out: SMYD2 Biochem IC50 (μM)*
attribute-measured: IC50

Some solved entries appear below for comparison.
CC(C)N1C[C@@H](C)[C@H](NC(=O)c2cc(C(F)F)on2)C1 (racemic) [compound 281] : > 50 µM
COc1ccc(N2C[C@@H](C)[C@H](NC(=O)c3cc(C4CC4)on3)C2)cc1 (racemic) [compound 299] : > 50 µM

### Prompt I'd like to know its IC50. The compound in question is CN1C[C@H](NC(=O)c2cc(C3CC3)on2)[C@@H](C(C)(C)C)C1 (racemic) [compound 144]
### Response > 50 µM
